# Tested on: downmodulation of MHC-I molecules expressed on the surface of HIV infected SupT1 cells
# EXPERIMENT NOTES: cells
# CONDITION DETAILS: Human immunodeficiency virus 1, SUP-T1, read-out: EC50 for inhibition of MHC-I downmodulation utilizing the R1 parameter
pEC50: −log10 of the molar value.

{"columns": ["SMILES ENTRY", "INEQUALITY SYMBOL", "pEC50"],
 "data": [
  ["Cc1cccc(CN(C(=O)COc2cccc3c2OC(C)(C)C3)c2nc3c(s2)CCCC3)n1", "=", 7.70],
  ["CC1(C)Cc2cccc(OCC(=O)Nc3ccc(C(F)(F)F)nc3)c2O1", "<", 4.60],
  ["CN(C(=O)COc1cccc2cc[nH]c12)c1nc2c(s1)CCCC2", "<", 4.60],
  ["C=Cc1ccc(NC(=O)COc2cccc3c2OC(C)(C)C3)nc1C", "=", 5.89],
  ["COc1cccc(OCC(=O)N(C)c2nc3c(s2)CCCC3)c1", "=", 5.41],
  ["CN(C(=O)COc1cccc2c1OC(C)(C)C2)c1nc2c(s1)CCC2", "=", 7.57],
  ["CC1(C)Cc2cccc(OCC(=O)Nc3nc4ccc(F)cc4s3)c2O1", "=", 5.38],
  ["CC1(C)Cc2cccc(OCC(=O)Nc3nc(C(=O)N4CC(CO)C4)cs3)c2O1", "<", 4.60],
  ["COc1ccccc1OCC(=O)Nc1nc2c(Br)cccc2s1", "<", 4.60],
  ["CN(C(=O)COc1cccc2c1OC(C)(C)C2)c1ccc(Br)cn1", "=", 4.77],
  ["CC1(C)Cc2cccc(OCC(=O)Nc3ccc4ccccc4n3)c2O1", "=", 5.00],
  ["Cc1ccc(N(C(=O)COc2cccc3c2OC(C)(C)C3)c2nc3c(s2)CCCC3)nn1", "=", 4.60],
  ["Cc1csc(N(C(=O)COc2cccc3c2OC(C)(C)C3)c2cncnc2)n1", "<", 4.60],
  ["COC(=O)CN(C(=O)COc1cccc2c1OC(C)(C)C2)c1nc2c(s1)CCCC2", "=", 4.66],
  ["COc1ccccc1OCC(=O)Nc1nc(C)cs1", "<", 4.60],
  ["Cc1csc(N(Cc2ccccc2)C(=O)COc2ccccc2OCc2ccccc2)n1", "=", 5.26],
  ["CCc1ccc(NC(=O)COc2cccc3c2OC(C)(C)C3)nc1", "=", 6.27],
  ["CC1(C)Cc2cccc(OCC(=O)Nc3cc4ccccc4cn3)c2O1", "=", 4.66],
  ["Cc1csc(NC(=O)COc2ccccc2OCc2ccccc2)n1", "=", 5.74]
]}
